Data origin, for the record: patent US20120251662A1

- Tested on: mold
- assay remarks: Mold growth on white bread loaves (Dough Formulation A) coated with antimicrobial powders, Example 1
assay readout: Mold Inhibition

- molecule: "O=C([O-])c1ccccc1.[Na+] [Sodium Benzoate]"
  assay value: "Moderately Effective"
- molecule: "CCC(=O)[O-].CCC(=O)[O-].[Ca+2] [Calcium Propionate]"
  assay value: "Slightly Effective"
- molecule: "C/C=C/C=C/C(=O)[O-].[K+] [Potassium Sorbate]"
  assay value: "Effective"
- molecule: "C[C@@H]1C/C=C/C=C/C=C/C=C/[C@H](O[C@@H]2O[C@H](C)[C@@H](O)[C@H](N)[C@@H]2O)C[C@@H]2O[C@](O)(C[C@@H](O)C[C@H]3O[C@@H]3/C=C/C(=O)O1)C[C@H](O)[C@H]2C(=O)O [Natamycin, reference compound]"
  assay value: "Effective"

Now take the following molecule into account.
Documented Mold Inhibition of O=C(O)/C=C/C(=O)O : Slightly Effective

----------
- Test system: mold
- assay remarks: Mold growth on white bread loaves (Dough Formulation A) coated with antimicrobial powders, Example 1

- compound: "CC(=O)O.CC(=O)[O-].[Na+] [Sodium Diacetate]"
  Mold Inhibition: "Moderately Effective"
- compound: "CCC(=O)[O-].[Na+] [Sodium Propionate]"
  Mold Inhibition: "Moderately Effective"
